- Test system: HeLa KRas G12C cells
- experimental.protocol: Cellular growth inhibition assay (CTG), HeLa KRas G12C cells
- Assay type: cell-based
- stated.conditions: Homo sapiens, CellTiter-Glo 2.0, day-5
value.type: GI50

- C=CC(=O)N1CCN(c2nc(NCCOCCOCCOCCOCCOCCOCCOCCOCCOc3cc(Cl)cc(NC(=O)NCc4ccc5c(c4)CN(C4CCC(=O)NC4=O)C5=O)c3)nc3c(F)c(-c4cc(O)cc5ccccc45)c(Cl)cc23)CC1 (centres unmarked) [Compound I-13]: > 10 µM
- C=CC(=O)N1CCN(c2nc(NCCOCCOCCOCCOCCOCCOCCOCCOCCc3cc(Cl)cc(NC(=O)NCc4ccc5c(c4)CN(C4CCC(=O)NC4=O)C5=O)c3)nc3c(F)c(-c4cc(O)cc5ccccc45)c(Cl)cc23)CC1 (centres unmarked) [Compound I-15]: > 10 µM

Measured values drawn from patent US20240238424A1 for this set.
